measurement_description: Evaluation of conversion rate to active form in buffer solution (Experimental Example 1)
Type: physicochemical
conditions: pH5.5, 0 hr
measured_parameter: Residual rate (%)

{"columns": ["compound", "reported_value"],
 "data": [
  ["CNC(=O)Oc1cc(O)c2c(=O)cc(-c3ccccc3Cl)oc2c1[C@H]1CCN(C)C[C@H]1O [Comparative Example 2, reference compound]", 96.4],
  ["CC(C)[C@H](N)C(=O)O[C@@H]1CN(C)CC[C@@H]1c1c(O)cc(O)c2c(=O)cc(-c3ccccc3Cl)oc12 [Comparative Example 10, reference compound]", 93.2],
  ["CNC(=O)O[C@@H]1CN(C)CC[C@@H]1c1c(O)cc(O)c2c(=O)cc(-c3ccccc3Cl)oc12 [Comparative Example 5, reference compound]", 93.9],
  ["CN1CC[C@H](c2c(O)cc(O)c3c(=O)cc(-c4ccccc4Cl)oc23)[C@H](OC(=O)[C@@H](N)CO)C1 [Comparative Example 9, reference compound]", 86.0]
]}

====

measurement_description: Evaluation of conversion rate to active form in buffer solution (Experimental Example 1)
Type: physicochemical
conditions: pH6.0, 0 hr
measured_parameter: Production rate of Alvocidib (%)

{"columns": ["compound", "unit_abbreviation", "Production rate of Alvocidib"],
 "data": [
  ["CCNC(=O)O[C@@H]1CN(C)CC[C@@H]1c1c(O)cc(O)c2c(=O)cc(-c3ccccc3Cl)oc12 [Comparative Example 4, reference compound]", "%", 1.8]
]}

(I) CCOC(=O)O[C@@H]1CN(C)CC[C@@H]1c1c(O)cc(O)c2c(=O)cc(-c3ccccc3Cl)oc12 [Comparative Example 3, reference compound]
(II) CNC(=O)O[C@@H]1CN(C)CC[C@@H]1c1c(O)cc(O)c2c(=O)cc(-c3ccccc3Cl)oc12 [Comparative Example 5, reference compound]
Q: Production rate of Alvocidib comparison. Which is larger, I or II ? Please identify the chosen entry by its label.
A: I

====

measurement_description: Evaluation of conversion rate to active form in buffer solution (Experimental Example 1)
Format: physicochemical
conditions: pH7.4, 1 hr, 37° C., 25 umol/L in buffer solution
measured_parameter: Residual rate (%)
Provide only the numeric value, understood in %.

{"columns": ["molecule", "measured_parameter", "reported_value"],
 "data": [
  ["CN1CC[C@H](c2c(OC(=O)N(C)C[C@@H]3CCCCN3)cc(O)c3c(=O)cc(-c4ccccc4Cl)oc23)[C@H](O)C1", "Residual rate", 17.0]
]}

Q: Can you share its Residual rate? I mean this molecule: CCNC(=O)Oc1cc(O)c2c(=O)cc(-c3ccccc3Cl)oc2c1[C@H]1CCN(C)C[C@H]1O [Comparative Example 1, reference compound]
A: 1.1

Q: Can you share its Residual rate? I mean this molecule: COCCN(CC1CCCCN1)C(=O)Oc1cc(O)c2c(=O)cc(-c3ccccc3Cl)oc2c1[C@H]1CCN(C)C[C@H]1O (stereo partly drawn)
A: 0.0

Q: Can you share its Residual rate? I mean this molecule: CCCN(C[C@H]1CCCCN1)C(=O)Oc1cc(O)c2c(=O)cc(-c3ccccc3Cl)oc2c1[C@H]1CCN(C)C[C@H]1O
A: 12.7

Q: Can you share its Residual rate? I mean this molecule: CCN(C[C@H]1CCCCN1)C(=O)Oc1cc(O)c2c(=O)cc(-c3ccccc3Cl)oc2c1[C@H]1CCN(C)C[C@H]1O
A: 17.1

Q: Can you share its Residual rate? I mean this molecule: CN1CC[C@H](c2c(OC(=O)N(C)CC3CCCCN3)cc(O)c3c(=O)cc(-c4ccccc4Cl)oc23)[C@H](O)C1 (stereo partly drawn)
A: 41.7

====

Reported Residual rate values for the following molecules.
measurement_description: Evaluation of conversion rate to active form in buffer solution (Experimental Example 1)
Type: physicochemical
conditions: pH6.5, 3 hr, 37° C., 25 umol/L in buffer solution
Provide only the numeric value, understood in %.

{"columns": ["molecule", "unit_abbreviation", "Residual rate"],
 "data": [
  ["CN1CC[C@H](c2c(OC(=O)N(C)C[C@H]3CCCCN3)cc(O)c3c(=O)cc(-c4ccccc4Cl)oc23)[C@H](O)C1 [Example 4]", "%", 24.9],
  ["CCCN(C[C@H]1CCCCN1)C(=O)Oc1cc(O)c2c(=O)cc(-c3ccccc3Cl)oc2c1[C@H]1CCN(C)C[C@H]1O [Example 6]", "%", 42.3],
  ["CCN(CCC1CCCCN1)C(=O)Oc1cc(O)c2c(=O)cc(-c3ccccc3Cl)oc2c1[C@H]1CCN(C)C[C@H]1O (stereo partly shown) [Example 16]", "%", 34.9],
  ["CCN(C[C@@H]1CCCCN1)C(=O)Oc1cc(O)c2c(=O)cc(-c3ccccc3Cl)oc2c1[C@H]1CCN(C)C[C@H]1O [Example 1, ditrifluoroacetate]", "%", 57.7],
  ["CCCN(CC1CCCCN1)C(=O)Oc1cc(O)c2c(=O)cc(-c3ccccc3Cl)oc2c1[C@H]1CCN(C)C[C@H]1O (stereo partly shown) [Example 9]", "%", 48.4]
]}

Q: Can you share its Residual rate? I mean this molecule: CN1CC[C@H](c2c(OC(=O)N(CCCC(F)(F)F)CC3CCCCN3)cc(O)c3c(=O)cc(-c4ccccc4Cl)oc23)[C@H](O)C1 (stereo partly shown) [Example 14]
A: 5.1

Q: Can you share its Residual rate? I mean this molecule: CN1CC[C@H](c2c(OC(=O)N(CCF)CC3CCCCN3)cc(O)c3c(=O)cc(-c4ccccc4Cl)oc23)[C@H](O)C1 (stereo partly shown) [Example 11]
A: 21.4

Q: Can you share its Residual rate? I mean this molecule: CC(C)N(CC1CCCCN1)C(=O)Oc1cc(O)c2c(=O)cc(-c3ccccc3Cl)oc2c1[C@H]1CCN(C)C[C@H]1O (stereo partly shown) [Example 10]
A: 47.1

====

measurement_description: Evaluation of conversion rate to active form in buffer solution (Experimental Example 1)
Type: physicochemical
conditions: pH5.0, 0.5 hr
measured_parameter: Residual rate (%)

{"columns": ["molecule", "Residual rate [%]"],
 "data": [
  ["C[C@H](N)C(=O)O[C@@H]1CN(C)CC[C@@H]1c1c(O)cc(O)c2c(=O)cc(-c3ccccc3Cl)oc12 [Comparative Example 7, reference compound]", 93.9],
  ["CCNC(=O)O[C@@H]1CN(C)CC[C@@H]1c1c(O)cc(O)c2c(=O)cc(-c3ccccc3Cl)oc12 [Comparative Example 4, reference compound]", 97.8],
  ["CNC(=O)O[C@@H]1CN(C)CC[C@@H]1c1c(O)cc(O)c2c(=O)cc(-c3ccccc3Cl)oc12 [Comparative Example 5, reference compound]", 93.5],
  ["CN1CC[C@H](c2c(O)cc(O)c3c(=O)cc(-c4ccccc4Cl)oc23)[C@H](OC(=O)[C@@H](N)CO)C1 [Comparative Example 9, reference compound]", 84.0],
  ["CC(C)[C@H](N)C(=O)O[C@@H]1CN(C)CC[C@@H]1c1c(O)cc(O)c2c(=O)cc(-c3ccccc3Cl)oc12 [Comparative Example 10, reference compound]", 93.2],
  ["CCOC(=O)O[C@@H]1CN(C)CC[C@@H]1c1c(O)cc(O)c2c(=O)cc(-c3ccccc3Cl)oc12 [Comparative Example 3, reference compound]", 90.6]
]}

====

measurement_description: Stability evaluation of solution formulation (Experimental Example 2)
Assay type: physicochemical
conditions: solution formulation, pH5.0, 4 week
measured_parameter: Residual rate (%)
Provide only the numeric value, understood in %.

{"columns": ["compound", "Residual rate, %"],
 "data": [
  ["CCN(C[C@H]1CCCCN1)C(=O)Oc1cc(O)c2c(=O)cc(-c3ccccc3Cl)oc2c1[C@H]1CCN(C)C[C@H]1O", 93.0],
  ["CCCN(C[C@@H]1CCCCN1)C(=O)Oc1cc(O)c2c(=O)cc(-c3ccccc3Cl)oc2c1[C@H]1CCN(C)C[C@H]1O", 95.0],
  ["CNCCN(C)C(=O)Oc1cc(O)c2c(=O)cc(-c3ccccc3Cl)oc2c1[C@H]1CCN(C)C[C@H]1O [Comparative Example 14, reference compound]", 1.1],
  ["CN1CC[C@H](c2c(OC(=O)N(C)CCN)cc(O)c3c(=O)cc(-c4ccccc4Cl)oc23)[C@H](O)C1 [Comparative Example 13, reference compound]", 55.9]
]}

Please examine the following record next.
Q: Can you share its Residual rate? I mean this compound: CCCN(C[C@H]1CCCCN1)C(=O)Oc1cc(O)c2c(=O)cc(-c3ccccc3Cl)oc2c1[C@H]1CCN(C)C[C@H]1O
A: 91.8

====

measurement_description: Evaluation of conversion rate to active form in buffer solution (Experimental Example 1)
Type: physicochemical
conditions: pH5.5, 0.5 hr, 37° C., 25 umol/L in buffer solution
measured_parameter: Production rate of Alvocidib (%)
Provide only the numeric value, understood in %.

Observe how each entry below is paired with its result.
{"columns": ["compound", "reported_value"],
 "data": [
  ["CN1CC[C@H](c2c(OC(=O)N(CCF)CC3CCCCN3)cc(O)c3c(=O)cc(-c4ccccc4Cl)oc23)[C@H](O)C1 (stereo partly shown)", 2.5],
  ["CCN(C[C@@H]1CCCCN1)C(=O)Oc1cc(O)c2c(=O)cc(-c3ccccc3Cl)oc2c1[C@H]1CCN(C)C[C@H]1O [Example 1, ditrifluoroacetate]", 1.0],
  ["CN1CC[C@H](c2c(OC(=O)N(CCCC(F)(F)F)CC3CCCCN3)cc(O)c3c(=O)cc(-c4ccccc4Cl)oc23)[C@H](O)C1 (stereo partly shown)", 30.9],
  ["CC(C)N(CC1CCCCN1)C(=O)Oc1cc(O)c2c(=O)cc(-c3ccccc3Cl)oc2c1[C@H]1CCN(C)C[C@H]1O (stereo partly shown)", 2.7],
  ["CCNC(=O)Oc1cc(O)c2c(=O)cc(-c3ccccc3Cl)oc2c1[C@H]1CCN(C)C[C@H]1O [Comparative Example 1, reference compound]", 74.7],
  ["CN1CC[C@H](c2c(OC(=O)N(CCC(F)(F)F)CC3CCCCN3)cc(O)c3c(=O)cc(-c4ccccc4Cl)oc23)[C@H](O)C1 (stereo partly shown)", 5.5],
  ["COCCN(CC1CCCCN1)C(=O)Oc1cc(O)c2c(=O)cc(-c3ccccc3Cl)oc2c1[C@H]1CCN(C)C[C@H]1O (stereo partly shown)", 1.9],
  ["CCN(CCC1CCCCN1)C(=O)Oc1cc(O)c2c(=O)cc(-c3ccccc3Cl)oc2c1[C@H]1CCN(C)C[C@H]1O (stereo partly shown)", 0.0]
]}

Q: Can you share its Production rate of Alvocidib? I mean this compound: CN1CC[C@H](c2c(OC(=O)N(C)C[C@@H]3CCCCN3)cc(O)c3c(=O)cc(-c4ccccc4Cl)oc23)[C@H](O)C1
A: 1.8
